Data origin: ChEMBL document CHEMBL1145857

assay: pKa value determined at 20 °C
Quantity Measured: pKa

INSERT INTO measurements (smi, reading) VALUES
  ('CC(C)NC1=NS(=O)(=O)c2cc(Br)ccc2N1', 9.41),
  ('CC(C)NC1=NS(=O)(=O)c2cc(Cl)ccc2N1', 9.51),
  ('CC(C)NC1=NS(=O)(=O)c2cc(F)ccc2N1', 9.63),
  ('CC(C)NC1=NS(=O)(=O)c2cc(I)ccc2N1', 9.28);

----------
RIS overview
organism: Rattus norvegicus; test: Percent inhibition of residual insulin release from rat pancreatic islets in the presence of 16.7 mM glucose at 1 uM concentration; type: functional
Quantity Measured: RIS (%)

INSERT INTO measurements (compound, reading) VALUES
  ('CCC(C)NC1=NS(=O)(=O)c2cc(Cl)ccc2N1 (stereo unspecified)', 85.4),
  ('CC(C)NC1=NS(=O)(=O)c2cc(I)ccc2N1', 74.8),
  ('O=S1(=O)NC(NC2CCC2)=Nc2ccc(F)cc21', 58.2),
  ('CC(C)C(C)NC1=NS(=O)(=O)c2cc(Br)ccc2N1 (stereo unspecified)', 97.2),
  ('C=CCNC1=Nc2ccc(Br)cc2S(=O)(=O)N1', 77.2),
  ('O=S1(=O)NC(NC2CC2)=Nc2ccc(Br)cc21', 85.1),
  ('O=S1(=O)N=C(NC2CCC2)Nc2ccc(Cl)cc21', 60.2),
  ('CNC1=NS(=O)(=O)c2cc(F)ccc2N1', 76.1),
  ('CCC(C)NC1=NS(=O)(=O)c2cc(Br)ccc2N1 (stereo unspecified)', 92.5),
  ('CC(C)C(C)NC1=NS(=O)(=O)c2cc(F)ccc2N1 (stereo unspecified)', 87.7),
  ('C=CCNC1=Nc2ccc(F)cc2S(=O)(=O)N1', 84.1),
  ('CNC1=NS(=O)(=O)c2cc(Br)ccc2N1', 69.9),
  ('CNC1=NS(=O)(=O)c2cc(Cl)ccc2N1', 55.1),
  ('CCC(C)NC1=NS(=O)(=O)c2cc(F)ccc2N1 (stereo unspecified)', 64.6),
  ('CCC(C)NC1=NS(=O)(=O)c2cc(I)ccc2N1 (stereo unspecified)', 84.2),
  ('O=S1(=O)NC(NC2CC2)=Nc2ccc(F)cc21', 104.5),
  ('CCC(CC)NC1=NS(=O)(=O)c2cc(Cl)ccc2N1', 93.7),
  ('CC(N/C(=N\C#N)Nc1ccncc1)C(C)(C)C (stereo unspecified) [PINACIDIL ANHYDROUS]', 97.7),
  ('CCNC1=NS(=O)(=O)c2cc(F)ccc2N1', 50.8),
  ('O=S1(=O)NC(NC2CCC2)=Nc2ccc(Br)cc21', 54.8),
  ('CC(C)C(C)NC1=NS(=O)(=O)c2cc(I)ccc2N1 (stereo unspecified)', 91.9),
  ('CCNC1=NS(=O)(=O)c2cc(Br)ccc2N1', 38.1),
  ('C=CCNC1=Nc2ccc(Cl)cc2S(=O)(=O)N1', 87.9),
  ('O=S1(=O)NC(NC2CCCC2)=Nc2ccc(F)cc21', 68.8),
  ('CCNC1=NS(=O)(=O)c2cc(Cl)ccc2N1', 29.2),
  ('O=S1(=O)N=C(NC2CC2)Nc2ccc(Cl)cc21', 84);

----------
organism: Rattus norvegicus; experiment: Effective dose required for relaxation of the 30 mM KCl-induced contraction of rat aortic rings; format: functional; conditions: Aorta, read-out: ED50 (the source's name)
pEC50: −log10 of the molar value.
Outcome: 1 for pEC50 of at least 5; -1 for anything lower.

INSERT INTO results (molecule, category) VALUES
  ('CCNC1=NS(=O)(=O)c2cc(Br)ccc2N1', 1),
  ('O=S1(=O)NC(NC2CCC2)=Nc2ccc(I)cc21', -1),
  ('CCC(C)NC1=NS(=O)(=O)c2cc(Br)ccc2N1 (configuration not stated)', 1),
  ('O=S1(=O)NC(NC2CC2)=Nc2ccc(F)cc21', -1),
  ('C=CCNC1=Nc2ccc(Br)cc2S(=O)(=O)N1', 1),
  ('CC(C)C(C)NC1=NS(=O)(=O)c2cc(Cl)ccc2N1 (configuration not stated)', 1),
  ('CCCNC1=NS(=O)(=O)c2cc(Cl)ccc2N1', -1),
  ('C=CCNC1=Nc2ccc(F)cc2S(=O)(=O)N1', -1),
  ('O=S1(=O)NC(NC2CC2)=Nc2ccc(Br)cc21', -1),
  ('CC1=Nc2ccc(Cl)cc2S(=O)(=O)N1 [DIAZOXIDE]', -1),
  ('CCC(C)NC1=NS(=O)(=O)c2cc(I)ccc2N1 (configuration not stated)', 1);

----------
# pEC50 annotations
species: Rattus norvegicus; assay: Effective dose required for relaxation of the 30 mM KCl-induced contraction of rat aortic rings; assay type: functional; details: Aorta, read-out: ED50 (the source's name)
pEC50: −log10 of the molar value.
Quantity Measured: pEC50

INSERT INTO assay_data (molecule, relation_operator, reading) VALUES
  ('CC(C)C(C)NC1=NS(=O)(=O)c2cc(F)ccc2N1 (stereo unspecified)', '=', 4.58),
  ('CCC(C)NC1=NS(=O)(=O)c2cc(F)ccc2N1 (stereo unspecified)', '=', 4.41),
  ('CCC(CC)NC1=NS(=O)(=O)c2cc(Cl)ccc2N1', '=', 4.03),
  ('CNC1=NS(=O)(=O)c2cc(F)ccc2N1', '<', 3.52),
  ('CCC(C)NC1=NS(=O)(=O)c2cc(Cl)ccc2N1 (stereo unspecified)', '=', 4.81),
  ('CCCNC1=NS(=O)(=O)c2cc(Br)ccc2N1', '=', 5.23),
  ('CCNC1=NS(=O)(=O)c2cc(F)ccc2N1', '<', 3.52),
  ('CC(N/C(=N\C#N)Nc1ccncc1)C(C)(C)C (stereo unspecified) [PINACIDIL ANHYDROUS]', '=', 6.46),
  ('O=S1(=O)N=C(NC2CC2)Nc2ccc(Cl)cc21', '=', 3.72),
  ('O=S1(=O)NC(NC2CCC2)=Nc2ccc(Br)cc21', '=', 4.66),
  ('CCNC1=NS(=O)(=O)c2cc(Cl)ccc2N1', '=', 4.40),
  ('CNC1=NS(=O)(=O)c2cc(Br)ccc2N1', '=', 4.51),
  ('O=S1(=O)NC(NCC2CC2)=Nc2ccc(F)cc21', '=', 3.84),
  ('C=CCNC1=Nc2ccc(Cl)cc2S(=O)(=O)N1', '=', 4.54),
  ('CC(C)C(C)NC1=NS(=O)(=O)c2cc(Br)ccc2N1 (stereo unspecified)', '=', 5.59),
  ('CC(C)C(C)NC1=NS(=O)(=O)c2cc(I)ccc2N1 (stereo unspecified)', '=', 6.03),
  ('O=S1(=O)NC(NCC2CC2)=Nc2ccc(Cl)cc21', '=', 4.39),
  ('CC(C)(C)NC1=NS(=O)(=O)c2cc(Cl)ccc2N1', '=', 5.85),
  ('CNC1=NS(=O)(=O)c2cc(Cl)ccc2N1', '=', 3.85),
  ('O=S1(=O)NC(NC2CCC2)=Nc2ccc(F)cc21', '=', 4.14),
  ('O=S1(=O)N=C(NC2CCC2)Nc2ccc(Cl)cc21', '=', 4.46),
  ('CCC(C)(C)NC1=NS(=O)(=O)c2cc(Cl)ccc2N1', '=', 6.54),
  ('O=S1(=O)NC(NC2CCCC2)=Nc2ccc(F)cc21', '=', 4.24),
  ('CCCNC1=NS(=O)(=O)c2cc(F)ccc2N1', '=', 3.78),
  ('CC(C)NC1=NS(=O)(=O)c2cc(Cl)ccc2N1', '=', 4.44),
  ('CCC(CC)NC1=NS(=O)(=O)c2cc(I)ccc2N1', '=', 4.10);

----------
species: Rattus norvegicus; test: Percent inhibition of residual insulin release from rat pancreatic islets in the presence of 16.7 mM glucose at 1 uM concentration; format: functional
Each item that follows carries a reported RIS.
Quantity Measured: RIS

INSERT INTO results (compound, quantity_measured, reading) VALUES
  ('CCCNC1=NS(=O)(=O)c2cc(F)ccc2N1', 'RIS', '69.2%'),
  ('CC(C)C(C)NC1=NS(=O)(=O)c2cc(Cl)ccc2N1 (stereo not drawn)', 'RIS', '88.1%'),
  ('CCCNC1=NS(=O)(=O)c2cc(Cl)ccc2N1', 'RIS', '83.4%');
